The entries below come with measured recovery at 5 hr, 10 μM values attached.
Protocol text: PAMPA permeability assay
Type: in vitro ADME
Run parameters: PAMPA, pH 7, PAMPA, donor and acceptor compartments
Quick reminder: number only, in %, skip the unit.

Before answering, review these 6 worked examples.
# Smiles structure, recovery at 5 hr, 10 μM / %
measured = [
    ("COC(=O)c1cc2c(cc1C)/C(=C(/Nc1ccc(C(=O)N(C)OCCN3CCNCC3)cc1)c1ccccc1)C(=O)N2", 50.5),
    ("COC(=O)c1cc2c(cc1C)/C(=C(/Nc1ccc(S(=O)(=O)NOCCN(C)C)cc1)c1ccccc1)C(=O)N2", 67.4),
    ("COC(=O)c1ccc2c(c1)NC(=O)/C2=C(\\Nc1ccc(C(=O)N(CCN(C)C)OC)cc1)c1ccccc1", 51.8),
    ("COC(=O)c1cc2c(cc1C)/C(=C(/Nc1ccc(C(=O)NOCCN3CCN(C)CC3)c(F)c1)c1ccccc1)C(=O)N2", 42.8),
    ("COC(=O)c1cc2c(cc1C)/C(=C(/Nc1ccc(C(=O)NOCCN3CCC(N(C)C)CC3)cc1)c1ccccc1)C(=O)N2", 179),
    ("COC(=O)c1ccc2c(c1)NC(=O)/C2=C(\\Nc1ccc(C(=O)NOCCN2CCC(O)CC2)cc1)c1ccccc1", 75),
]

Okay, next one:
Can you look up the measured recovery at 5 hr, 10 μM of COC(=O)c1cc2c(cc1C)/C(=C(/Nc1ccc(C(=O)NOCCN(C)C)c(C)c1)c1ccccc1)C(=O)N2 for me? 50.4
